Measured IC50, listed per entry.
system: phorbol myristate acetate (PMA)-induced platelet aggregation; test: PMA-induced platelet aggregation; type: cell-based; conditions: Platelet; read-out: IC50, antagonism of PMA-induced platelet aggregation
Write the value in µM as a bare number.

Please give the measured IC50 for this molecule: CCN(CC)CCOc1ccc(C(=O)c2ccc(F)cc2)cc1 20

Others:
Please give the measured IC50 for this molecule: CCN(CC)CCOc1ccc(Cc2ccccc2)cc1 80

* * *

biological target: ^3 H-DPPE binding (HIC) in rat liver microsomes; assay: competition for 3H-DPPE binding in liver microsomes; settings: liver microsomes; FIG. 2; read-out: K1 to compete for ^3 H-DPPE binding
Quantity Name: Ki (µM)
Write the value in µM as a bare number.

Recorded Ki for CN(C)CCC=C1c2ccccc2CCc2ccccc21 [amitriptyline] with ^3 H-DPPE binding (HIC) in rat liver microsomes, please? 10
